# TEST: qHTS profiling of inhibitors of Plasmodium falciparum (DD2) proliferation (acoustic dispense)
# CONDITION_SUMMARY: P. falciparum Dd2 in erythrocytes, SYBR Green DNA, 72 h; at 49.8 µM (top of the series) unless noted
Measured parasite growth, lower = inhibition, listed per entry for reference.
Response body: numeric value in %, unit text excluded.

// below: answered molecules
MOLECULE_SMILES	READOUT_VALUE
CO[C@H]1O[C@@H]2O[C@@]3(C)CC[C@@H]4[C@@H](C)CC[C@@H]([C@H]1C)[C@@]24OO3	-0.475
C=CCNc1c(O)cc2c(O)c1C[C@@H](C)C[C@H](OC)[C@@H](O)[C@@H](C)C=C(C)[C@H](OC(N)=O)[C@@H](OC)C=CC=C(C)C(=O)N2	-0.701
Cc1nc2cnc3ccc(C#Cc4cccnc4)cc3c2n1-c1ccc(C(C)(C)C#N)cc1	0.532
C=CCn1c(=O)c2cnc(Nc3ccc(N4CCN(C)CC4)cc3)nc2n1-c1cccc(C(C)(C)O)n1	-0.0983
O=C1c2ccccc2-[n+]2ccc3c([nH]c4ccccc43)c21	2.4

Now turn to the next molecule.
Query: Fill blank: measured parasite growth, lower = inhibition of the molecule `Nc1cccc(-c2csc(NC(=O)CCCCCCC(=O)NO)n2)c1` is ____.
Response: -0.461
